tested on: UACC-62 melanoma; test: NCI-60 one-dose screen, 48 h (100 = growth as untreated, 0 = no growth, -100 = all killed); settings: 10 µM unless noted
Compounds without any hit were thinned out: in the full panel of roughly 83,000, 20% have a hit.
// values below are reported growth
parameter_measured: growth (%)

INSERT INTO results (compound, parameter_measured, unit_tag, result_value) VALUES
  ('Cc1cccc(-c2nnc(SCC(=O)Nc3ncc(Cc4ccccc4)s3)n2N2C(=O)CSC2=S)c1', 'growth', '%', 20.1),
  ('COC(=O)c1c2c(c(C)[n+]([O-])c1C)C(=O)C(NCCN1CCOCC1)=CC2=O', 'growth', '%', 68.4),
  ('CCN1C(=O)N(c2ccccc2)C2NC(=S)N(/N=C/C=C/c3ccccc3)C21 (configuration not stated)', 'growth', '%', 20),
  ('O=C1OCC2=C1C(c1cccc(C(F)(F)F)c1)c1cc3c(cc1N2CCO)CCC3 (configuration not stated)', 'growth', '%', 41.7),
  ('COc1ccc(C/C(C)=C(/c2ccc(OCCN3CCCC3)cc2)c2ccc(OC(=O)NCc3ccccc3)cc2)cc1', 'growth', '%', 84.8),
  ('CC1=C2[C@@H](CC1)[C@]1(C)O[C@@](C3CC3)(C[C@H]1OC(=O)CO)[C@H]2OC(=O)/C=C/c1ccccc1', 'growth', '%', 73.1),
  ('COc1cc(CO)cc2cc3ccccc3nc12', 'growth', '%', 98.7),
  ('CCCCC#Cc1c(/C=C(\CCCC)SCC)n(C)c(=O)[nH]c1=O', 'growth', '%', 90.4),
  ('Cc1ccc(-c2nc3nc(-c4ccccc4)nc(N4CCCNCC4)c3o2)cc1', 'growth', '%', -81.4),
  ('COc1cc2nc3cc([N+](=O)[O-])ccc3c(NCCNCC(C)(C)O)c2cc1OC', 'growth', '%', -48.6),
  ('COc1cc2c(cc1OCCCOC1=C=C=C(c3ccc4c(c3)c3cc(-c5ccc(OCCCOc6cc7c(cc6OC)C(=O)N6CCC[C@H]6C=N7)cc5)ccc3n4S(=O)(=O)c3ccc(C)cc3)C=C1)N=C[C@@H]1CCCN1C2=O', 'growth', '%', -14.1),
  ('O=C1/C(=C/c2ccccc2)CN(C(=O)C(Cl)Cl)C/C1=C\c1ccccc1', 'growth', '%', -66.4);

---

Examples of compounds with documented growth follow.
system: OVCAR-4 ovarian; experiment: NCI-60 one-dose screen, 48 h (100 = growth as untreated, 0 = no growth, -100 = all killed); conditions: 10 µM unless noted
This is part of a sample that, as a whole, favours compounds with a hit. Of some 83,000 tested, about 20% had one in any assay. Activity calls are given as the source filed them. The calls were made as follows: active = growth percent below 10; inactive = the rest.
parameter_measured: growth

INSERT INTO measurements (compound_structure, parameter_measured, result_value) VALUES
  ('CCCCCCCCn1ccc2cc(NC(=O)CN3CCN(c4nc(C)cc(N5CCCCC5)n4)CC3)ccc21', 'growth', '82.7% (inactive)'),
  ('FC(F)(F)Sc1ccc(/C=C/c2cc(/C=C/c3ccc(SC(F)(F)F)cc3)n(-c3ccccc3)n2)cc1', 'growth', '92.3% (inactive)'),
  ('COc1cc(CO)cc2cc3ccccc3nc12', 'growth', '107% (inactive)');
